experimentalTarget: T1, Anti-CD28 Fab (SEQ ID NOs: 696, 697)
T1 construct: Biotinylated and captured on neutravidin coated plates in the phage ELISA
T1 sequence (VH, as listed by the source, chain 1 of 2): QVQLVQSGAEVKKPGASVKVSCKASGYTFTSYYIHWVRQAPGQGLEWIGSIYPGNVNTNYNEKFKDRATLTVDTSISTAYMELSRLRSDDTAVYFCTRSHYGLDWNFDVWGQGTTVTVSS
T1 sequence (VL, as listed by the source, chain 2 of 2): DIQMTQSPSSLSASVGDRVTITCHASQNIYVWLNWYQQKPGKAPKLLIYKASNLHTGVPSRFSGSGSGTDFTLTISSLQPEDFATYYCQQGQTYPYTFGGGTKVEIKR
protocolDetails: phage ELISA; biotinylated anti-CD28 Fab on neutravidin plate, clonal phage supernatant, anti-M13 HRP detection;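 also: crude supernatants of single phage clones picked after panning were screened for binding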
Please respond with reported Anti-CD28 Fab signal (phage binding ELISA) for every item in the list.
Give bare numbers.

Illustrative cases are given below, each with its answer.
                                     binder  numericresult
0  YCEGHAPEYMMKCI (Clonal phage of the Peptide-87 library) [Phage-674]           2.06
1  YCQGHMPEYMDKCL (Clonal phage of the Peptide-87 library) [Phage-681]           2.05
2  YCEGHADIYMQKCL (Clonal phage of the Peptide-87 library) [Phage-675]           2.06
3  YCEGHLPIYMDKCL (Clonal phage of the Peptide-87 library) [Phage-678]           2.06
4  YCDGHAIEYMQKCL (Clonal phage of the Peptide-87 library) [Phage-679]           2.05

State recorded Anti-CD28 Fab signal (phage binding ELISA) for all listed binders.
1. YCEGHSAEYMNKCL (Clonal phage of the Peptide-87 library) [Phage-676]
2. YCDGHAPQYMGKCL (Clonal phage of the Peptide-87 library) [Phage-677]

result:
1. 2.06
2. 2.06
